- run_parameters: 318.15 K; 30500 kPa; Liquid; Vibrating tube method
Each entry below carries its recorded mass density.
Your answer is read as kg/m3, so omit the unit and give the number.

Completed entries (count: 2):
>  <smi>
Cc1ccncc1

>  <unit_of_measure>
kg/m3

>  <mass density>
951.7

$$$$
>  <smi>
Cc1cccnc1

>  <unit_of_measure>
kg/m3

>  <mass density>
953.8

$$$$

Looking for the measured mass density of c1ccncc1 , can you help? 978.8

// lookup mass density for Cc1ccccn1 942.4

###

- run_parameters: 328.15 K; 6180 kPa; Liquid; Vibrating tube method
Catalogue of compounds with associated mass density
State just the number; it will be interpreted in kg/m3.

What value of mass density has been reported for the following compound? Cc1ccccn1 916.7

###

- run_parameters: 308.15 K; 14290 kPa; Liquid; Vibrating tube method
Examples of molecules with documented mass density follow.
Report as a plain number; the unit kg/m3 is understood.

>  <smi>
Cc1cccnc1

>  <readout_value>
952.3

$$$$
>  <smi>
Cc1ccncc1

>  <readout_value>
950.3

$$$$
>  <smi>
Cc1ccccn1

>  <readout_value>
940.5

$$$$

Next item in the queue.
Reported mass density, molecule c1ccncc1 : ____ 977.6

###

- run_parameters: 298.15 K; 22390 kPa; Liquid; Vibrating tube method
property: mass density (kg/m3)
Express it in kg/m3; write the number only.

As a guide, the following entries are already answered.
>  <compound>
c1ccncc1 [pyridine]

>  <unit_of_measure>
kg/m3

>  <mass density>
992.1

$$$$
>  <compound>
Cc1ccccn1 [2-methylpyridine]

>  <unit_of_measure>
kg/m3

>  <mass density>
954.2

$$$$
>  <compound>
Cc1ccncc1 [4-methylpyridine]

>  <unit_of_measure>
kg/m3

>  <mass density>
963.5

$$$$

Reported mass density for Cc1cccnc1 [3-methylpyridine] : what is it? 965.6

###

List of mass density values.
- run_parameters: 318.15 K; 20370 kPa; Liquid; Vibrating tube method
Field format: number, assumed kg/m3, no unit text.

# example entries with known answers
>  <smi>
Cc1cccnc1

>  <mass density (kg/m3)>
947.5

$$$$
>  <smi>
c1ccncc1

>  <mass density (kg/m3)>
972.2

$$$$
>  <smi>
Cc1ccncc1

>  <mass density (kg/m3)>
945.5

$$$$

Next up:
Requested field: mass density. Item: Cc1ccccn1 935.8

###

- run_parameters: 308.15 K; 2130 kPa; Liquid; Vibrating tube method
property: mass density (kg/m3)
Use kg/m3 as the unit, but write only the number.

Known results for compounds:
>  <smi>
Cc1ccccn1

>  <mass density [kg/m3]>
932.1

$$$$
>  <smi>
Cc1ccncc1

>  <mass density [kg/m3]>
942.3

$$$$
>  <smi>
c1ccncc1

>  <mass density [kg/m3]>
969.2

$$$$

Looking for the measured mass density of Cc1cccnc1 , can you help? 944.3

###

- run_parameters: 328.15 K; 24420 kPa; Liquid; Vibrating tube method
property: mass density (kg/m3)
Write the answer as a number in kg/m3, unit excluded.

// lookup mass density for Cc1ccccn1 [2-methylpyridine] 930

Recorded mass density of Cc1cccnc1 [3-methylpyridine] , please. 941.7

What does the record list as mass density for Cc1ccncc1 [4-methylpyridine] ? 939.7

Quick one: mass density of c1ccncc1 [pyridine] ? 965.6

###

Parameter mass density: see the listing below.
- run_parameters: 308.15 K; 12260 kPa; Liquid; Vibrating tube method
Numeric only. Scale: kg/m3

Example cases with answers are listed next.
>  <compound>
Cc1ccccn1 [2-methylpyridine]

>  <readout_value>
939.1

$$$$
>  <compound>
Cc1cccnc1 [3-methylpyridine]

>  <readout_value>
951

$$$$
>  <compound>
Cc1ccncc1 [4-methylpyridine]

>  <readout_value>
949

$$$$

Lab note: next compound to report on.
# mass density lookup, item c1ccncc1 [pyridine] 976.3

###

- run_parameters: 298.15 K; 16310 kPa; Liquid; Vibrating tube method
property: mass density (kg/m3)
Your answer should be a plain number; it is taken to be in kg/m3.

>  <smi>
Cc1cccnc1

>  <mass density / kg/m3>
962.1

$$$$
>  <smi>
Cc1ccncc1

>  <mass density / kg/m3>
960

$$$$
>  <smi>
c1ccncc1

>  <mass density / kg/m3>
988.3

$$$$

Given Cc1ccccn1 , state its recorded mass density. 950.5

###

- run_parameters: 308.15 K; 4150 kPa; Liquid; Vibrating tube method
± gives the expanded uncertainty stated by the source.
property: mass density

# example entries with known answers
>  <smi>
Cc1ccncc1

>  <mass density>
943.7 ± 0.3 kg/m3

$$$$
>  <smi>
Cc1ccccn1

>  <mass density>
933.5 ± 0.8 kg/m3

$$$$
>  <smi>
Cc1cccnc1

>  <mass density>
945.7 ± 0.3 kg/m3

$$$$

Attention now shifts to the item below.
Look up mass density: c1ccncc1 970.6 ± 0.2 kg/m3

###

- run_parameters: 298.15 K; 28470 kPa; Liquid; Vibrating tube method
Recorded mass density, one value per entry.
Use kg/m3 as the unit, but write only the number.

>  <compound>
Cc1ccncc1 [4-methylpyridine]

>  <property>
mass density

>  <unit_of_measure>
kg/m3

>  <readout_value>
966.9

$$$$

What mass density value was documented for this compound, Cc1cccnc1 [3-methylpyridine] ? 969

mass density for Cc1ccccn1 [2-methylpyridine] ? 957.7

// mass density lookup, key: c1ccncc1 [pyridine] 995.7

###

- run_parameters: 298.15 K; 10230 kPa; Liquid; Vibrating tube method
± gives the expanded uncertainty stated by the source.
property: mass density

Some compounds with recorded mass density:
>  <smi>
Cc1ccccn1

>  <readout_value>
946.6 ± 0.8 kg/m3

$$$$
>  <smi>
Cc1ccncc1

>  <readout_value>
956.3 ± 0.3 kg/m3

$$$$
>  <smi>
c1ccncc1

>  <readout_value>
984.5 ± 0.2 kg/m3

$$$$

We now examine a further compound.
Value lookup for mass density; key = Cc1cccnc1 958.4 ± 0.3 kg/m3

###

- run_parameters: 328.15 K; 30500 kPa; Liquid; Vibrating tube method
Listing of entries alongside the reported mass density.
Field: numeric (kg/m3). Do not append units.

These recorded examples may help you get a feel for the data.
>  <smi>
Cc1ccncc1

>  <property>
mass density

>  <readout_value>
943.6

$$$$
>  <smi>
c1ccncc1

>  <property>
mass density

>  <readout_value>
969.7

$$$$
>  <smi>
Cc1cccnc1

>  <property>
mass density

>  <readout_value>
945.7

$$$$

// next entry
Need mass density, item Cc1ccccn1 934.1

###

Below, each of the molecules is paired with its reported mass density value.
- run_parameters: 298.15 K; 30500 kPa; Liquid; Vibrating tube method
Numbers after ± are expanded uncertainties.

Please review the entries below; each comes with its answer.
>  <smi>
c1ccncc1

>  <readout_value>
996.9 ± 0.2 kg/m3

$$$$
>  <smi>
Cc1cccnc1

>  <readout_value>
970.1 ± 0.3 kg/m3

$$$$
>  <smi>
Cc1ccccn1

>  <readout_value>
958.9 ± 0.8 kg/m3

$$$$

Proceed to the following item.
I have this molecule here, Cc1ccncc1 , and I need its recorded mass density. 968 ± 0.3 kg/m3

###

Recorded mass density for the following compounds
- run_parameters: 308.15 K; 28470 kPa; Liquid; Vibrating tube method
Hi! Could you send only the number? It should be in kg/m3, unit omitted.

See these solved cases before continuing.
>  <smi>
Cc1ccncc1

>  <unit_of_measure>
kg/m3

>  <mass density>
958.8

$$$$
>  <smi>
Cc1cccnc1

>  <unit_of_measure>
kg/m3

>  <mass density>
960.9

$$$$
>  <smi>
Cc1ccccn1

>  <unit_of_measure>
kg/m3

>  <mass density>
949.5

$$$$

Given the compound c1ccncc1 , what is its reported mass density? 986.7

###

- run_parameters: 328.15 K; 29490 kPa; Liquid; Vibrating tube method
property: mass density (kg/m3)
Respond numerically; units are kg/m3 and should not be typed.

>  <smi>
c1ccncc1

>  <mass density (kg/m3)>
969

$$$$
>  <smi>
Cc1ccccn1

>  <mass density (kg/m3)>
933.4

$$$$
>  <smi>
Cc1ccncc1

>  <mass density (kg/m3)>
943

$$$$

Lab note: next compound to report on.
Which mass density is reported for this compound? Cc1cccnc1 945

###

- run_parameters: 318.15 K; 16310 kPa; Liquid; Vibrating tube method
List of mass density values.
Please respond with the number in kg/m3 and leave the unit unwritten.

>  <smi>
Cc1ccccn1

>  <unit_of_measure>
kg/m3

>  <mass density>
933

$$$$
>  <smi>
Cc1cccnc1

>  <unit_of_measure>
kg/m3

>  <mass density>
944.9

$$$$
>  <smi>
c1ccncc1

>  <unit_of_measure>
kg/m3

>  <mass density>
969.5

$$$$

Attention now shifts to the item below.
Which mass density is reported for this compound? Cc1ccncc1 942.9

Data origin, for the record: the NIST ThermoML archive (doi:10.1016/j.jct.2009.07.006)
